system: human alpha-synuclein monomer (human, UniProt P37840 1-140)
protocol: SPR (Biacore 8K), IgG captured on anti-human Fc, aSyn monomer injected
Entries and their pKd
To interpret pKd, take it as minus log10 of a concentration measured in moles per litre.

binder	pKd
HC3_LC3 (antibody, V domains shown, humanized 20H4 IgG) VH: EVQLVESGGGLVQPGGSLRLSCAASGFTFSNAAMYWVRQAPGKGLELVSRIRTKPNNYATYHADSVKGRFTISRDNSKNTVYLQMNSLRAEDTAVYYCTADMATGDYWGQGTLVTVSS VL: DIQMTQSPSSLSASVGDRVTITCKASQNINKNLDWYQQKPGKAPKPLIYSTNNLQTGVPSRFSGSGSGTDYTLTISSLQPEDFATYYCYQYKSAWTFGQGTKVEIK	8.28
HC2_LC4 (antibody, V domains shown, humanized 20H4 IgG) VH: EVQLVESGGGLVQPGGSLRLSCAASGFTFSNAAMYWVRQAPGKGLELVSRIRTKPNNYATYHADSVKGRFTISRDNSKNTLYLQMNSLRAEDTAVYYCTADMATGDYWGQGTLVTVSS VL: EIVMTQSPATLSLSPGERATLSCKASQNINKNLDWYQQKPGQAPRLLIYSTNNLQTGIPARFSGSGSGTDFTLTISSLQPEDFAVYYCYQYKSAWTFGQGTKVEIK	8.01

Next:
In: Specify reported pKd for the binder shown: HC5_LC1 (antibody, V domains shown, humanized 20H4 IgG) VH: EVQLVESGGGLVQPGGSLRLSCAASGFTFSNAAMYWVRQAPGKGLELLARIRTKPNNYATYHADSVKGRFTISRDDSKNTVYLQMNSLRAEDTAVYYCTADMATGDYWGQGTLVTVSS VL: DIQMTQSPSSLSASVGDRVTITCKASQNINKNLDWYQQKPGKAPKLLIYSTNNLQTGVPSRFSGSGSGTDFTLTISSLQPEDFATYYCYQYKSAWTFGQGTKVEIK
Out: 8.71
